Just for reference, patent US20240228488A1 is where these values come from.

Listed below: pEC50 values for each entry.
biological target: human activated kallikrein enzyme (Homo sapiens, UniProt P03952); assay: Plasma kallikrein inhibition, fluorogenic PFR-AMC substrate, 500 pM activated kallikrein format; format: biochemical; settings: 500 pM activated kallikrein, 300 uM PFR-AMC, 30 min preincubation, 10 min reaction; read-out: Primary Dose Response Assay: Average EC50
Sequence (P03952 391-638 limits assumed): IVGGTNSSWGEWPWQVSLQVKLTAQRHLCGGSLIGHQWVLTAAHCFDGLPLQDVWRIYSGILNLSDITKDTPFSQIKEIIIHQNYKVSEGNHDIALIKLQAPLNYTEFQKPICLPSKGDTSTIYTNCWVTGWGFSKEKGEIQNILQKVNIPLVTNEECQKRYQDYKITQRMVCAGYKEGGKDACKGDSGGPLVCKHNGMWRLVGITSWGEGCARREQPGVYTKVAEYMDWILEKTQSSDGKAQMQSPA
Sequence (P03952 20-390 partner limits assumed): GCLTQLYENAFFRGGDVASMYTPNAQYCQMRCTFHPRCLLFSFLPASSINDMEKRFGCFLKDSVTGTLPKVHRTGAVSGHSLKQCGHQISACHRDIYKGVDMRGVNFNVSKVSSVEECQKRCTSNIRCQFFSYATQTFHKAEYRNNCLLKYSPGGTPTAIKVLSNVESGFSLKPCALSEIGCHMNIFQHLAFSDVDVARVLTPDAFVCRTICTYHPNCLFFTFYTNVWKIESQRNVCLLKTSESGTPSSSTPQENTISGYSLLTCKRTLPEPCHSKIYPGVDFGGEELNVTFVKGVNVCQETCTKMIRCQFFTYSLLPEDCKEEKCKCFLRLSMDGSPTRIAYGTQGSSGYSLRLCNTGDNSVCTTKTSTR
pEC50: −log10 of the molar value.

In the examples that follow, each entry is paired with its recorded pEC50.
O=C(Nc1cc(NCc2cn3cc(C4CC4)ccc3n2)ccn1)[C@H]1C[C@@H]1c1cc(Cl)cnn1 (racemic)    7.00 to 8.00
CS(=O)(=O)c1cc(C2CC2)cn2cc(CNc3cc(NC(=O)[C@H]4C[C@@H]4c4cccc(Cl)c4)ncn3)nc12 [Example I-162]    8.00 to 9.00
COCc1nc(NC(=O)[C@H]2C[C@@H]2c2nccc(C)n2)cc(N(C)Cc2cn3cc(C4CC4)cc(N4CC(=O)N(C)C4=O)c3n2)n1    > 9.00
Cc1ccnc([C@H]2C[C@@H]2C(=O)Nc2ccc(F)c(NCc3cn4cc(C5CC5)cc(N5CC(=O)N(C)C5=O)c4n3)c2)n1    > 9.00

Could you now look at the following compound, please?
Query string: Query pEC50 on human activated kallikrein enzyme (Homo sapiens, UniProt P03952) for Cc1ccnc([C@H]2C[C@@H]2C(=O)Nc2cc(N[C@H](C)c3cn4cc(C5(F)CC5)cc(N5CC(=O)N(C)C5=O)c4n3)ncn2)n1
Result string: > 9.00
